- assay target: Neuronal acetylcholine receptor subunit alpha-7 (Rattus norvegicus, UniProt Q05941)
- Sequence (Q05941 whole entry): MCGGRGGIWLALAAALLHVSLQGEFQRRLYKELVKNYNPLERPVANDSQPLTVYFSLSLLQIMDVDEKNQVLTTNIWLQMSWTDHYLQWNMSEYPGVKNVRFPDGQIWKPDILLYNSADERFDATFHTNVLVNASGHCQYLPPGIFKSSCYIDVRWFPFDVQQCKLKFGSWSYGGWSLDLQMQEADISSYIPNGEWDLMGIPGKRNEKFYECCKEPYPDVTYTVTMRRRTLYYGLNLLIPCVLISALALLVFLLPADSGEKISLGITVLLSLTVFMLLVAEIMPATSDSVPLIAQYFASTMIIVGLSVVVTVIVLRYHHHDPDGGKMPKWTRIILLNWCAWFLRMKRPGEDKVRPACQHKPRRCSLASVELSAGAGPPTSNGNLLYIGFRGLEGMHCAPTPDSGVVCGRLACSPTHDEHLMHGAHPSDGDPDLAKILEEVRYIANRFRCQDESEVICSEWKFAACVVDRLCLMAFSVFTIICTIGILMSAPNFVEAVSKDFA
- assay protocol: Agonist activity at rat alpha-7 nAChR expressed in GH4C1-F7 cells assessed as effect on calcium influx by FLIPR
- Format: functional, cell-based
quantity kind: pEC50
Note on pEC50: it is the negative log10 of concentration, concentration in mol/L.

Use the examples below as a reference point.
CN(C)CCCn1c(Cc2ccc(Br)cc2)nc2ccccc21    5.59
Cc1ccc2nc(Cc3ccc(Br)cc3)n(CCCN(C)C)c2c1    5.77
CN1CCN(CCCn2c(COc3cccc(Cl)c3)nc3ccccc32)CC1    5.00
CN1[C@@H]2CC[C@H]1C[C@H](NC(=O)Nc1ccc(Br)cc1)C2    6.70
CN1CCCC1CCn1c(Cc2ccc(Br)cc2)nc2ccccc21 (configuration not stated)    5.57
O=C(Nc1ccccc1F)OC1CN2CCC1CC2 (configuration not stated)    6.22

Tested system Neuronal acetylcholine receptor subunit alpha-7 (Rattus norvegicus, UniProt Q05941); pEC50 recorded for CN(C)CCCn1c(COc2ccccc2)nc2ccccc21 was 5.59
